Target or system: hT2R54 (Homo sapiens, UniProt P59534)
Construct: expressed in transfected cells; it overexpresses a promiscuous G protein
Sequence (P59534 whole entry): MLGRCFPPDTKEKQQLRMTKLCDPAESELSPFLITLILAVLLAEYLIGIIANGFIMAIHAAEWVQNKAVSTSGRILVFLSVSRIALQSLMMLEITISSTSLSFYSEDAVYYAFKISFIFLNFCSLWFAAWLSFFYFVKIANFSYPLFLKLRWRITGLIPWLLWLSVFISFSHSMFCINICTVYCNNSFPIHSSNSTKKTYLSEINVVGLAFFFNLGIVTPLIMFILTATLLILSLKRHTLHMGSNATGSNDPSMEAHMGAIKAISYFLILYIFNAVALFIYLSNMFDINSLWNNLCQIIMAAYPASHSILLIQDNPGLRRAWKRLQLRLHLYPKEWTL
Experiment: Cell-based assay for measuring hT2R54 inhibition (FLIPR calcium, Fluo4AM, acetaminophen as bitter agonist)
Test context: Table 2; cells stably expressing hT2R54 and a promiscuous G protein; read-out: hT2R54 IC50
Measured quantity: IC50 (nM)

Solved entries:
>  <Compound>
COc1cc2c(cc1NC(=O)CN1CCN(C(=O)Cc3ccccc3F)CC1)OCO2

>  <IC50 [nM]>
200

$$$$
>  <Compound>
COCc1ccc(C(=O)N2CCN(CC(=O)Nc3cc4c(cc3C(C)=O)OCO4)CC2)s1

>  <IC50 [nM]>
21

$$$$
>  <Compound>
CC(=O)c1cc2c(cc1NC(=O)CN1CCN(C(=O)C3CCCO3)CC1)OCCO2 (stereo not drawn)

>  <IC50 [nM]>
90

$$$$
>  <Compound>
CC(=O)c1cc2c(cc1NC(=O)CN1CCN(C(=O)Cc3cccnc3)CC1)OCO2

>  <IC50 [nM]>
80

$$$$
>  <Compound>
COc1ccccc1C(=O)N1CCN(CC(=O)Nc2cc3c(cc2C(C)=O)OCO3)CC1

>  <IC50 [nM]>
40

$$$$

1 = COCc1cc(C(=O)N2CCN(CC(=O)Nc3cc4c(cc3OC)OCO4)CC2)no1 [compound 400]
2 = CC(=O)c1cc2c(cc1NC(=O)CN1CCN(C(=O)c3cn[nH]c3)CC1)OCO2
3 = CC(=O)c1cc2c(cc1NC(=O)CN1CCN(C(=O)CC(C)(C)C)CC1)OCO2
4 = CCCC(=O)N1CCN(CC(=O)Nc2cc3c(cc2C(C)=O)OCO3)CC1
5 = CCOC(=O)N1CCN(CC(=O)Nc2cc3c(cc2OC)OCO3)CC1
Your job: order these 5 records by IC50, ascending. Please write the labels in the order that was asked for.
4, 3, 1, 5, 2
(4: 29 nM, 3: 80 nM, 1: 300 nM, 5: 520 nM, 2: 800 nM)

A = COc1cc2c(cc1NC(=O)CN1CCN(C(=O)C3CCCC3)CC1)OCO2
B = CC(=O)c1cc2c(cc1NC(=O)CN1CCN(C(=O)C3CCN(C)C3)CC1)OCO2 (stereo not drawn)
C = COCc1ccc(C(=O)N2CCN(CC(=O)Nc3cc4c(cc3C(=O)OC)OCO4)CC2)o1
Could you please order the items by IC50, going from the lowest number to the highest? Answer format: the labels, ordered as requested.
C, A, B

====

Target or system: hT2R54 (Homo sapiens, UniProt P59534)
Construct: expressed in transfected cells; it overexpresses a promiscuous G protein
Experiment: Cell-based assay for measuring hT2R54 inhibition (FLIPR calcium, Fluo4AM, acetaminophen as bitter agonist)
Test context: Table 2; cells stably expressing hT2R54 and a promiscuous G protein; read-out: hT2R54 IC50
Measured quantity: IC50 (µM)

>  <Compound>
COc1ccc(CC(=O)N2CCN(CC(=O)Nc3cc4c(cc3C(C)=O)OCO4)CC2)cc1

>  <IC50 / µM>
0.2

$$$$

I = COC(=O)c1cc2c(cc1NC(=O)CN1CCN(C(C)=O)CC1)CCCC2
II = COc1ccc(C(=O)N2CCN(CC(=O)Nc3cc4c(cc3OC)OCO4)CC2)cc1
III = CC(=O)c1cc2c(cc1NC(=O)CN1CCN(C(=O)OC(C)C)CC1)OCO2
IV = CC(=O)c1cc2c(cc1NC(=O)CN1CCN(C(=O)C3CCN(C)CC3)CC1)OCO2
V = COc1cc2c(cc1NC(=O)CN1CCN(C(=O)c3c[nH]c(C)n3)CC1)OCO2
Hey, can you sort those compounds up there by IC50, smallest first? // respond by listing labels in the order requested
III, II, V, I, IV

1 = CC(=O)c1cc2c(cc1NC(=O)CN1CCN(C(=O)c3nc(C)oc3C)CC1)OCO2
2 = COc1cc2c(cc1NC(=O)CN1CCN(C(C)=O)CC1)CCC2 [compound 410]
3 = COc1cc2c(cc1NC(=O)CN1CCN(C(=O)c3ccco3)CC1)OCO2
4 = COc1cc2c(cc1NC(=O)CN1CCN(C(=O)c3ccc(CO)o3)CC1)OCO2
5 = CC(=O)c1cc2c(cc1NC(=O)CN1CCN(C(=O)NC(C)C)CC1)OCO2
Rank the items in ascending order with respect to IC50. Write the labels out in the order the request specifies.
5, 1, 3, 4, 2
